# targetOrSystem: ErbB2 with Exon 20 YVMA insertion (HER2-YVMA) (Homo sapiens (Human), UniProt P04626, INS775YVMA)
# Sequence (P04626 other isoform, or with tags, fused parts or gaps ins YVMA behind 775): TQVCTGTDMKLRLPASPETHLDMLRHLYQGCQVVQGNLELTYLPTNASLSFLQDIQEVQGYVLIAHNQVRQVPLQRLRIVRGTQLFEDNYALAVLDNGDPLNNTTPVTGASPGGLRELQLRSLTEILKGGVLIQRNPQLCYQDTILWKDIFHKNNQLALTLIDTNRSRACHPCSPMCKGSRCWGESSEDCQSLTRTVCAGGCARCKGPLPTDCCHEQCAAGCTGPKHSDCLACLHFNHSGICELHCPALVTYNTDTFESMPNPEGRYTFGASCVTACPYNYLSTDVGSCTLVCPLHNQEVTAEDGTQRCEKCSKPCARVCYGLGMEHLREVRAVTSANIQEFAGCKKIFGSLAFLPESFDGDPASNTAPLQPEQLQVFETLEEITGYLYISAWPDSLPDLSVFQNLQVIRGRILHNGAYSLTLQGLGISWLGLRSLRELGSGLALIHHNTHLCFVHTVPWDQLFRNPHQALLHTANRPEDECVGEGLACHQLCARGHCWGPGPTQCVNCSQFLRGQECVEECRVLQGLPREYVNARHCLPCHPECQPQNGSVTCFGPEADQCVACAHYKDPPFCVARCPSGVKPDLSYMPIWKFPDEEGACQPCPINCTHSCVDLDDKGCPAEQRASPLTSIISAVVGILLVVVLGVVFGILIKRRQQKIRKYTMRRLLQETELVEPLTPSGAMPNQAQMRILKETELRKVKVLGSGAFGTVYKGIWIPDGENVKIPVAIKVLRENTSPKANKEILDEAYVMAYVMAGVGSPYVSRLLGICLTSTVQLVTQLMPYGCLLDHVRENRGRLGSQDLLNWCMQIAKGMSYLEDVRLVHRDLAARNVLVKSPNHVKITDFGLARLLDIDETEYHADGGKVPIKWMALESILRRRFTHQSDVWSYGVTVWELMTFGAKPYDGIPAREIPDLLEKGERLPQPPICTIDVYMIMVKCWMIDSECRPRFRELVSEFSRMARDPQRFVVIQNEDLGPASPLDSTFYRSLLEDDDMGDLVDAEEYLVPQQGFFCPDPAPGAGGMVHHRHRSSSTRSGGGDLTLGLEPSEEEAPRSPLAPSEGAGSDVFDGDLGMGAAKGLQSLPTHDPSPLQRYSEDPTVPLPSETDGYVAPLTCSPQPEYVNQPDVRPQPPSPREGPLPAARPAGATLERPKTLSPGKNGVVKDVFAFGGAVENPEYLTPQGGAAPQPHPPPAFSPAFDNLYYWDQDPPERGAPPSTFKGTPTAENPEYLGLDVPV
# experiment: Cellular Phosphorylation Assay, Assay 4 (constitutive ErbB2 phosphorylation, NIH 3T3 cells)
# Type: cell-based
# assayContext: ErbB2 YVMA phosphorylation
parameterMeasured: IC50
Returns: string containing the number followed by the unit.

Give reported IC50 value for `C=CC(=O)N1CC2CC(C1)N2c1ccc2ncnc(Nc3cc(Cl)c(Oc4ccn5ncnc5c4)cc3F)c2n1`
0.0171 µM

Give reported IC50 value for `C=CC(=O)N1CCN(c2ccc3ncnc(Nc4ccc(Oc5ccc6c(c5)ncn6C)c(Cl)c4)c3n2)CC1`
0.0047 µM

Give reported IC50 value for `C=CC(=O)N1CCCN(c2ccc3ncnc(Nc4ccc(Oc5cnc6c(c5)ncn6C)c(C)c4)c3n2)CC1`
0.0299 µM

Give reported IC50 value for `C=CC(=O)N1CCN(c2ccc3ncnc(Nc4ccc(Oc5ccn6ncnc6c5)c(Cl)c4F)c3n2)CC1`
0.0023 µM

Give reported IC50 value for `C=CC(=O)N1CC[C@@H]2C[C@H]1CN2c1ccc2ncnc(Nc3ccc(Oc4ccn5ncnc5c4)c(C)c3F)c2n1`
0.0042 µM

Give reported IC50 value for `C=CC(=O)N1C2CCC1CN(c1ccc3ncnc(Nc4ccc(Oc5ccn6ncnc6c5)c(Cl)c4F)c3n1)C2`
0.0055 µM

Give reported IC50 value for C=CC(=O)N1CC[C@H](c2ccc3ncnc(Nc4ccc(Oc5ccn6ncnc6c5)c(C)c4F)c3n2)CC12CC2 (single isomer, unassigned)
0.0079 µM

Give reported IC50 value for `CC#CC(=O)N1CC[C@@H]2C[C@H]1CN2c1ccc2ncnc(Nc3ccc(Oc4ccn5ncnc5c4)c(C)c3F)c2n1`
0.0244 µM

Give reported IC50 value for `C=CC(=O)N1CC[C@@H]2CN(c3nc4c(Nc5ccc(Oc6ccn7ncnc7c6)c(C)c5F)ncnc4cc3OC)C[C@@H]21`
0.0678 µM

Give reported IC50 value for `CC#CC(=O)N1CCC12CN(c1ccc3ncnc(Nc4cc(C)c(Oc5ccn6ncnc6c5)cc4F)c3n1)C2`
2.02 µM

Give reported IC50 value for `C=CC(=O)N1CCC(Oc2nc3c(Nc4ccc(Oc5ccc6cn(C)nc6c5)c(C)c4)ncnc3cc2OC)CC1`
0.0213 µM

Give reported IC50 value for `C=CC(=O)N1CCCN(c2ccc3ncnc(Nc4ccc(Oc5ccn6ncnc6c5)c(Cl)c4F)c3n2)CC1`
0.0189 µM

Give reported IC50 value for `C=CC(=O)N1[C@@H]2CC[C@H]1C[C@@H](c1ccc3ncnc(Nc4cc(C)c(Oc5cnc6c(c5)ncn6C)cc4F)c3n1)C2`
0.0375 µM

---

# targetOrSystem: EGFR wild type (EGFR WT) (Homo sapiens (Human))
# Sequence (P00533 25-1210): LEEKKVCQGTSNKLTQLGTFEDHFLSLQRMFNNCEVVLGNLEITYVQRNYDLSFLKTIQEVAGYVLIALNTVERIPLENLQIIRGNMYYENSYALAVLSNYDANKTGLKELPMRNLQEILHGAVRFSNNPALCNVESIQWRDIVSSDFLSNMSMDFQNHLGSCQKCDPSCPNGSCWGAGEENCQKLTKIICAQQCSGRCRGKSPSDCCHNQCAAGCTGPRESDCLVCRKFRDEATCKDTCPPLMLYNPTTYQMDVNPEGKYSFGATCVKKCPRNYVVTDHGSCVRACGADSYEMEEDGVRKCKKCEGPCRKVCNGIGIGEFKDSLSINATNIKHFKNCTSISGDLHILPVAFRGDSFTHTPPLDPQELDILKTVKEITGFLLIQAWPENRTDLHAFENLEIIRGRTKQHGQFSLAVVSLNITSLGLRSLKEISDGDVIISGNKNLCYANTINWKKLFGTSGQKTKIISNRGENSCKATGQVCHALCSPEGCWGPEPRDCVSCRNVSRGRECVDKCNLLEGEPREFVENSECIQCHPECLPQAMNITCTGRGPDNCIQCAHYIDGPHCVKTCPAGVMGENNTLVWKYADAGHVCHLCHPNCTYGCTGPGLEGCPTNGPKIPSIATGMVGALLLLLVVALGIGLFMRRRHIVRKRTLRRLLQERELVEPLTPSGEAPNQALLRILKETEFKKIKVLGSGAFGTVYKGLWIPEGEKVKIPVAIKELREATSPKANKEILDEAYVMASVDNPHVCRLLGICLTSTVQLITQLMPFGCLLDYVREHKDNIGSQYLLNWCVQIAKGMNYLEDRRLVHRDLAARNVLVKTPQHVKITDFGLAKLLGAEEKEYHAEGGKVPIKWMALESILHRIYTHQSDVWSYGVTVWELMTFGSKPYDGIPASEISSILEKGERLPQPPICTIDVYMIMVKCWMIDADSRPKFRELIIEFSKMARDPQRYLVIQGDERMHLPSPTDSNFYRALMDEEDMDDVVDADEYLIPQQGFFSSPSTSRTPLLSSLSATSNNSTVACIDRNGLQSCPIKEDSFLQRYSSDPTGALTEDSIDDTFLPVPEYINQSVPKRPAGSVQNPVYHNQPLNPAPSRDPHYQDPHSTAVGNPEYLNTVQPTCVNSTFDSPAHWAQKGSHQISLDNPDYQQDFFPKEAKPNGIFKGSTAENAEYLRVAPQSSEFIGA
# experiment: Cellular Phosphorylation Assay, Assay 5 (EGF-stimulated EGFR phosphorylation, NIH 3T3 cells)
# Assay type: cell-based
# assayContext: cellular EGFR WT phosphorylation, EGF-stimulated
For each record, write down the corresponding pIC50.
Please note pIC50 is a logarithmic value: minus log10 of concentration in mol/L. Answer with that number alone.

Give reported pIC50 value for `C=CC(=O)N1CCN(c2ccc3ncnc(Nc4ccc(Oc5ccn6ncnc6c5)c(C)c4F)c3n2)CC12CC2`
7.16

Give reported pIC50 value for `C=CC(=O)N1CCN(c2ccc3ncnc(Nc4ccc(Oc5ccn6ncnc6c5)cc4C(F)(F)F)c3n2)CC1(C)C`
5.46

Give reported pIC50 value for `C=CC(=O)N1C[C@@H]2C[C@H](c3ccc4ncnc(Nc5ccc(Oc6ccn7ncnc7c6)c(C)c5F)c4n3)C[C@H]1C2`
6.62

Give reported pIC50 value for `C=CC(=O)N1CCN(c2ccc3ncnc(Nc4ccc(Oc5ccn6ncnc6c5)c(Cl)c4F)c3n2)C[C@@H]1C1CC1`
5.71

Give reported pIC50 value for `C=CC(=O)N1CCN(c2ccc3ncnc(Nc4ccc(Oc5ccn6ncnc6c5)c(C)c4F)c3n2)C[C@@H]1COC`
6.09

Give reported pIC50 value for `C=CC(=O)N1CC2CC(C1)N2c1ccc2ncnc(Nc3cc(C)c(Oc4ccc5c(c4)ncn5C)cc3F)c2n1`
5.97

Give reported pIC50 value for `C=CC(=O)N1CCCN(c2ccc3ncnc(Nc4ccc(Oc5ccn6ncnc6c5)c(C)c4F)c3n2)CC1(C)C`
5.46

Give reported pIC50 value for `C=CC(=O)N1C[C@@H]2C[C@H](c3ccc4ncnc(Nc5ccc(Oc6ccc7c(c6)ncn7C)c(C)c5F)c4n3)C[C@H]1C2`
6.16

---

For each record, write down the corresponding pIC50.
# targetOrSystem: ErbB2 with Exon 20 YVMA insertion (HER2-YVMA) (Homo sapiens (Human), UniProt P04626, INS775YVMA)
# experiment: Cellular Phosphorylation Assay, Assay 4 (constitutive ErbB2 phosphorylation, NIH 3T3 cells)
# Format: cell-based
# assayContext: cellular ErbB2 YVMA phosphorylation
# Protocol: NIH 3T3 cells were engineered to express ErbB2 with Exon 20 YVMA insertion (HER2-YVMA (SEQ ID NO: 2); Assay 4) or EGFR wild type (EGFR WT; Assay 5) with constructs obtained from GenScript and grown in DMEM supplemented with 10% fetal bovine serum and 15 μg/ml blasticidin. […] Serially diluted compounds were added to the plates for 1 hour at 37° C./5% CO2. EGFR WT cells were stimulated with 100 ng/ml rEGF for an additional 10 minutes at 37° C./5% CO2. […]
Please note pIC50 is a logarithmic value: minus log10 of concentration in mol/L. Answer with that number alone.

Give reported pIC50 value for `C=CC(=O)N1CCN(c2ccc3ncnc(Nc4ccc(Oc5ccn6ncnc6c5)c(C)c4F)c3n2)C[C@H]1C(C)C`
7.53

Give reported pIC50 value for `C=CC(=O)N1[C@H](C)CN(c2ccc3ncnc(Nc4ccc(Oc5cc(F)c6c(c5)ncn6C)c(C)c4)c3n2)C[C@@H]1C`
7.68

Give reported pIC50 value for `C=CC(=O)N1CCN(c2ccc3ncnc(Nc4ccc(Oc5ccn6ncnc6c5)c(C)c4F)c3n2)C[C@@H]1C(C)(C)C`
7.10

Give reported pIC50 value for `C=CC(=O)N1CCCN(c2ccc3ncnc(Nc4ccc(Oc5ccn6ncnc6c5)c(C)c4F)c3n2)CC1(C)C`
7.11

Give reported pIC50 value for `C=CC(=O)N1C[C@@H]2C[C@H]1C[C@H]2c1ccc2ncnc(Nc3cc(C)c(Oc4ccn5ncnc5c4)cc3F)c2n1`
7.36

Give reported pIC50 value for `C=CC(=O)N1CC[C@@H]2C[C@H]1CN2c1ccc2ncnc(Nc3cc(C)c(Oc4ccn5ncnc5c4)cc3F)c2n1`
8.23

Give reported pIC50 value for `C=CC(=O)N1[C@@H]2CC[C@H]1[C@H](c1ccc3ncnc(Nc4cc(C)c(Oc5ccn6ncnc6c5)cc4F)c3n1)C2`
7.09

Give reported pIC50 value for `C=CC(=O)N1C[C@@H]2CC[C@H]1CN2c1ccc2ncnc(Nc3cc(Cl)c(Oc4ccn5ncnc5c4)cc3F)c2n1`
8.42

Give reported pIC50 value for `C=CC(=O)N1C[C@H]2C[C@@H]1[C@H](c1ccc3ncnc(Nc4ccc(Oc5ccn6ncnc6c5)c(C)c4F)c3n1)C2`
7.28

Give reported pIC50 value for CC#CC(=O)N1C[C@@H]2CC[C@H]1CN2c1ccc2ncnc(Nc3ccc(Oc4ccn5ncnc5c4)c(C)c3F)c2n1 [Example 329]
7.13

Give reported pIC50 value for C=CC(=O)N1CCCC(c2ccc3ncnc(Nc4ccc(Oc5ccn6ncnc6c5)c(Cl)c4F)c3n2)CC1 (stereo not shown)
7.72

Give reported pIC50 value for `C=CC(=O)N1[C@@H]2CC[C@H]1[C@H](c1ccc3ncnc(Nc4ccc(Oc5ccn6ncnc6c5)c(Cl)c4F)c3n1)C2`
7.94

Give reported pIC50 value for `C=CC(=O)N1CCN(c2ccc3ncnc(Nc4ccc(Oc5cc(F)c6c(c5)ncn6C)c(C)c4)c3n2)CC1`
8.17

Give reported pIC50 value for `C=CC(=O)N1C[C@H]2C[C@@H]1[C@H](c1ccc3ncnc(Nc4ccc(Oc5ccn6ncnc6c5)c(Cl)c4F)c3n1)C2`
8.03

Give reported pIC50 value for `C=CC(=O)N1C[C@@H]2CC[C@H]1CN2c1ccc2ncnc(Nc3cc(C)c(Oc4cnc5c(c4)ncn5C)cc3F)c2n1`
7.99

Give reported pIC50 value for C=CC(=O)N1CCN(c2ccc3ncnc(Nc4ccc(Oc5ccn6ncnc6c5)c(Cl)c4F)c3n2)C[C@@H]1C(F)F (racemic)
8.39

Give reported pIC50 value for `C=C(C)C(=O)N1CCN(c2ccc3ncnc(Nc4ccc(Oc5ccn6ncnc6c5)c(C)c4F)c3n2)CC1(C)C`
6.28

Give reported pIC50 value for `C=CC(=O)N1CCN(c2ccc3ncnc(Nc4cc(C)c(Oc5cnc6c(c5)ncn6C)cc4F)c3n2)CC12CC2`
8.06

Give reported pIC50 value for `C=CC(=O)N1C[C@@H]2CN(c3ccc4ncnc(Nc5ccc(Oc6ccc7c(c6)ncn7C)c(C)c5F)c4n3)C[C@@H]21`
7.62

Give reported pIC50 value for `C=CC(=O)N1CCN(c2ccc3ncnc(Nc4cc(C)c(Oc5ccc6c(c5)ncn6C)cc4F)c3n2)CC12CC2`
7.71

Give reported pIC50 value for `C=CC(=O)N1CCN(c2ccc3ncnc(Nc4ccc(Oc5ccc6c(c5)ncn6C)c(C)c4F)c3n2)CC12CC2`
7.79

Give reported pIC50 value for `C=CC(=O)N1CC2CCC(C1)N2c1ccc2ncnc(Nc3ccc(Oc4ccn5ncnc5c4)c(C)c3F)c2n1`
8.32
